Numbers sourced from ChEMBL document CHEMBL1154412.

# Test system: Enterococcus faecalis
# procedure.summary: Antimicrobial activity against vancomycin-resistant Enterococcus faecalis after 20 to 24 hrs by broth microdilution method
# Format: functional
measured.metric: MIC90 (µg/mL)
Report the figure in µg/mL without appending any unit label.

[[record]]
smiles_str = "CC1(C)S[C@@H]2[C@H](NC(=O)[C@H](N)c3ccccc3)C(=O)N2[C@H]1C(=O)O"
test_value = 4


Note down MIC90 recorded for `CCCCCCCCCCNCCN[C@@]1(C)C[C@H](O[C@H]2[C@H](Oc3c4cc5cc3Oc3ccc(cc3Cl)[C@@H](O)[C@@H](NC(=O)[C@@H](CC(C)C)NC)C(=O)N[C@@H](CC(N)=O)C(=O)N[C@H]5C(=O)N[C@H]3C(=O)N[C@H](C(=O)N[C@H](C(=O)O)c5cc(O)c(CNCP(=O)(O)O)c(O)c5-c5cc3ccc5O)[C@H](O)c3ccc(c(Cl)c3)O4)O[C@H](CO)[C@@H](O)[C@@H]2O)O[C@@H](C)[C@H]1O`
8

Note down MIC90 recorded for `CCCCCCCCCC(=O)N[C@@H](Cc1c[nH]c2ccccc12)C(=O)N[C@H](CC(N)=O)C(=O)N[C@@H](CC(=O)O)C(=O)N[C@@H]1C(=O)NCC(=O)N[C@@H](CCCN)C(=O)N[C@@H](CC(=O)O)C(=O)N[C@H](C)C(=O)N[C@@H](CC(=O)O)C(=O)NCC(=O)N[C@H](CO)C(=O)N[C@@H]([C@H](C)CC(=O)O)C(=O)N[C@@H](CC(=O)c2ccccc2N)C(=O)O[C@@H]1C`
2

Note down MIC90 recorded for `CC(=O)NC[C@H]1CN(c2ccc(N3CCOCC3)c(F)c2)C(=O)O1`
2

* * *

# Test system: Streptococcus pneumoniae
# procedure.summary: Antibacterial activity against penicillin-susceptible Streptococcus pneumoniae after 20 to 24 hrs by broth microdilution method
# Type: functional
Let's look at some compounds and their measured MIC90.
Report the figure in µg/mL without appending any unit label.

Example entries begin here.
[[record]]
smiles_str = "CN[C@H](CC(C)C)C(=O)N[C@H]1C(=O)N[C@@H](CC(N)=O)C(=O)N[C@H]2C(=O)N[C@H]3C(=O)N[C@H](C(=O)N[C@H](C(=O)O)c4cc(O)cc(O)c4-c4cc3ccc4O)[C@H](O)c3ccc(c(Cl)c3)Oc3cc2cc(c3O[C@@H]2O[C@H](CO)[C@@H](O)[C@H](O)[C@H]2O[C@H]2C[C@](C)(N)[C@H](O)[C@H](C)O2)Oc2ccc(cc2Cl)[C@H]1O"
measured_target = "Streptococcus pneumoniae"
measured_metric = "MIC90"
unit = "µg/mL"
test_value = 0.5

[[record]]
smiles_str = "CC[C@H]1OC(=O)[C@H](C)[C@@H](O[C@H]2C[C@@](C)(OC)[C@@H](O)[C@H](C)O2)[C@H](C)[C@@H](O[C@@H]2O[C@H](C)C[C@H](N(C)C)[C@H]2O)[C@](C)(O)C[C@@H](C)C(=O)[C@H](C)[C@@H](O)[C@]1(C)O"
measured_target = "Streptococcus pneumoniae"
measured_metric = "MIC90"
unit = "µg/mL"
test_value = 0.06


Note down MIC90 recorded for `CCCCCCCCCCNCCN[C@@]1(C)C[C@H](O[C@H]2[C@H](Oc3c4cc5cc3Oc3ccc(cc3Cl)[C@@H](O)[C@@H](NC(=O)[C@@H](CC(C)C)NC)C(=O)N[C@@H](CC(N)=O)C(=O)N[C@H]5C(=O)N[C@H]3C(=O)N[C@H](C(=O)N[C@H](C(=O)O)c5cc(O)c(CNCP(=O)(O)O)c(O)c5-c5cc3ccc5O)[C@H](O)c3ccc(c(Cl)c3)O4)O[C@H](CO)[C@@H](O)[C@@H]2O)O[C@@H](C)[C@H]1O`
0.03
